# Tested on: HUVEC
# Test summary: Inhibition of tube formation of HUVEC by matrigel tube-formation assay
# Type: functional, cell-based
# Test parameters: Homo sapiens
Active and inactive are the calls of the source. The calls are words filed in the database; no cut-off is given here.
Parameter call: string, one of Yes (active), No (inactive)

Examples with answers:
Cc1oc2ccccc2c1C(=O)c1ccc(O)c(I)c1 | No
CCc1oc2ccccc2c1C(=O)c1ccc(O)cc1 [BENZARONE] | Yes
CCc1oc2ccc(O)cc2c1C(=O)c1cc(Br)c(O)c(Br)c1 | No
CCc1oc2cc(O)ccc2c1C(=O)c1cc(Br)c(O)c(Br)c1 | Yes
CC(O)CCc1oc2ccccc2c1C(=O)c1cc(I)c(O)c(I)c1 (stereo not drawn) | No

-- ask Which outcome was entered for the compound CCc1oc2ccccc2c1C(=O)c1cc(Br)c(O)c(Br)c1 [BENZBROMARONE] in this test?
-- reply Yes

-- ask Which outcome was entered for the compound CCCCc1oc2ccccc2c1C(=O)c1cc(I)c(O)c(I)c1 in this test?
-- reply No

-- ask Test call, this compound: Cc1oc2ccccc2c1C(=O)c1cc(I)c(O)c(I)c1
-- reply No
